Recorded cytotoxicity at 70.5 h values for a group of compounds are listed next.
- experiment: Human HepG2 cell viability assay in 384 well format
- Format: toxicity, cell-based
- Set-up: dose 125 nL, time 70.5 hour; concentration not given beside the values
- testSettings: HepG2 cells, read-out: Inhibition
valueType: cytotoxicity at 70.5 h (%)

In [3]: df
Out[3]:
                                    compound  resultnumber
 0  COCCN1CCN(CCS(C)(=O)=O)CC1C (stereo not drawn)          8.39
 1  CC(NC(=O)NCCCN1CCCCCC1=O)c1nncn1C (stereo not drawn)          10.2
 2  CCc1cc(O)n2nc(C3CCN(C(=O)c4ccccn4)CC3)cc2n1        -0.453
 3        Cc1nc2c(c(NCCCN3CCOCC3)n1)CCN(C)C2          15.4
 4        CC(=O)N(C)c1nc(Cn2nnnc2C2CCCC2)cs1          0.35
 5  COCC1CCN(S(=O)(=O)N2C[C@H](c3ccccc3)[C@@H](N)C2)CC1         -1.87
 6           Cc1sc(Br)cc1S(=O)(=O)NCc1ccccn1         -18.2
 7                   NC(=O)CSCC(=O)NCC1CCCC1         -10.8
 8   O=C(CCc1ccco1)Nc1ncn(CC(=O)N2CCCCCC2)n1         -2.03
 9            Cc1noc(C)c1CCC(=O)N1CCCN(C)CC1         -3.68
10  CC(=O)N1CC(=O)N(c2cnn(C)c2)CC12CCN(Cc1ccco1)C2 (stereo not drawn)         -16.8
11             CC(C)c1noc(CCC(=O)N2CCSCC2)n1         -18.8
12  COCCCN1CCC(NC2CSCCc3ccccc32)CC1 (stereo not drawn)          2.22
13  CC(C)N[C@@H]1CC[C@@H]1NC(=O)c1ccccc1OC(F)(F)C(F)F          14.2
14  Cc1cc(Cl)c2c(c1)C1(NC(=O)c3cccnc3N1)C(=O)N2 (stereo not drawn)         -1.82
15  CC(NCc1cnn(C)c1)c1ccc(OCc2nccn2C)cc1 (stereo not drawn)         -2.06
16   COc1c(NS(=O)(=O)c2ccc(C)c(C)c2)c(C)nn1C          2.79
17  Cc1cc(C)n(-c2ccc(N3CCC4(CC3)OCCO4)nc2)n1          3.59
18  CNc1ccc(C2CN(c3nc(C)cc(C)n3)CCO2)nc1 (stereo not drawn)         -2.83
19  CCN(Cc1ccccn1)C1CCN(c2ccccc2)C1=O (stereo not drawn)         -5.06
20         CCc1nccn1CC(=O)Nc1cccc(C(=O)OC)c1         -5.31
21  CN(C)C(=O)N1CCN(Cc2ccccc2)[C@@H]2CS(=O)(=O)C[C@@H]21         -7.42
22       Cn1cc(N2Cc3nc(N4CCOCC4)ncc3C2=O)cn1          -6.6
23  NC(=O)CN1CC[C@@]2(O)CCCC[C@H]2[C@@H]1c1ccc2c(c1)OCO2         -2.64
24  C[C@@H]1CCC[C@H](C)N1CC(=O)N1CCc2[nH]c(-c3ccccc3)nc2C1            27
25  N#CC1(NC(=O)c2ccc(F)c(Br)c2)CCSC1 (stereo not drawn)         -8.42
26  NC(=O)CN1CCCN(C(=O)c2ccn(-c3cccc(F)c3)n2)CC1         -7.11
27  Cc1nccn1Cc1nnc(C2CCCN(c3cnccn3)C2)n1C (stereo not drawn)         -18.6
28        CCS(=O)(=O)N(C)CC(=O)Nc1ccc(Br)cn1          4.52
29  N#Cc1ccnc(N2CCN(CC(O)c3cccc(F)c3)CC2)c1 (stereo not drawn)          -7.6
30  O=C(NC[C@H]1OC[C@@H]2CCN(c3ccccn3)C[C@@H]21)c1ccco1         -1.04
31               CC(=O)Nc1ccc(CN2CCOC2=O)cc1         -9.56
32  CC(NC(=O)C(C)(C)C)c1cc(O)nc(-c2cccnc2)n1 (stereo not drawn)         -5.99
33  COc1ccc(CCN(C)C(=O)CN2C(=O)OC[C@@H]2C(C)C)cc1OC         -4.47
34  CN(C)c1ncc2c(O)nc(C3CCCNC3)cc2n1 (stereo not drawn)         -3.16
35          O=C(Cc1ccc2c(c1)OCC2)Nc1nn[nH]n1          -8.8
36  Cc1cc(OCC(=O)N2CCCC(c3nccs3)C2)no1 (stereo not drawn)         -2.96
37              CC(C)(C)NC(=O)CNc1ccc(Br)cn1         0.762
38  Cc1cncc(C(=O)N2CCC3(CC2)NC(=O)CC3c2ccccc2)c1 (stereo not drawn)          17.7
39   CN1CC(=O)N(C2CCNCC2)Cc2c(NC3CCC3)ncnc21         -7.06
40  Cc1cccc(NC(=O)C2CC(=O)n3cnnc3S2)c1 (stereo not drawn)        -0.584
41   c1ccc(-c2nc(SCc3nnc(C4CC4)o3)n[nH]2)nc1         -4.88
42  Cc1nccn1C1CCCN(C(=O)COC2CCCC2)C1 (stereo not drawn)         -4.55
43               Cc1cc(N2CCCCC2)c(C#N)c(C)n1         -5.91
44  CCN1CCOC(CNc2nccc(OC)n2)C1 (stereo not drawn)         -5.64
45  COc1cccc2c1OCC(Cc1cc(C(N)=O)ccn1)C2 (stereo not drawn)            26
46     O=C(Cc1ccsc1)N1CCc2ncc(Cn3cccn3)n2CC1         -13.8
47  COCCN1CCO[C@@H]2CN(C(=O)NCc3cccnc3)CC[C@@H]2C1         0.801

Every entry's value here was drawn from ChEMBL document CHEMBL3507680.
